Numbers sourced from patent US20230263822A1.

- Test system: platelet aggregation
- Assay text: Platelet aggregation assay, ADP and/or collagen (Example 45)
- Assay type: in vivo, cynomolgus monkeys
- Settings: day −5 (with collagen); escalating dose regimen
Measurement kind: platelet aggregation (Ohms)

{"Substance": "ISIS 416850: MOE gapmer, nucleobases 1275 to 1318 of SEQ ID NO: 1 (Table 8) (antisense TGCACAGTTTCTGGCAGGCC; MOE gapmer, wing and gap sizes not given here)", "Obs value": 23}
{"Substance": "ISIS 416858: MOE gapmer, nucleobases 1275 to 1318 of SEQ ID NO: 1 (Table 8) (antisense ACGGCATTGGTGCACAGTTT; MOE gapmer, wing and gap sizes not given here)", "Obs value": 22}
{"Substance": "ISIS 416838: MOE gapmer, nucleobases 1018 to 1042 of SEQ ID NO: 1 (Table 6) (antisense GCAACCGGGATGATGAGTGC; MOE gapmer, wing and gap sizes not given here)", "Obs value": 15}
{"Substance": "ISIS 416864: MOE gapmer, nucleobases 1275 to 1318 of SEQ ID NO: 1 (Table 8) (antisense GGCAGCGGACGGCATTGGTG; MOE gapmer, wing and gap sizes not given here)", "Obs value": 27}
{"Substance": "ISIS 417002: MOE gapmer, nucleobases 1275 to 1318 of SEQ ID NO: 1 (Table 8) (antisense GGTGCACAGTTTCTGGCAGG; MOE gapmer, wing and gap sizes not given here)", "Obs value": 21}
